Recorded pIC50 by entry
Measured On: human galectin-3C (Gal-3C, C-terminal CRD of galectin-3) (Homo sapiens, UniProt P17931)
Construct: only the C-terminal domain was used (Gal-3C); 6xHis tag with TEV protease site (N, cleaved yes); made in house; host or cells: BL21 Escherichia coli (pET-15b)
Sequence (P17931 118-248 limits assumed): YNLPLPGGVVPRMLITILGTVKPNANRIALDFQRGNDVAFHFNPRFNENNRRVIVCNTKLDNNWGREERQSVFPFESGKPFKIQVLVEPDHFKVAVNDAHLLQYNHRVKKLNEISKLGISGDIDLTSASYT
Assay Text: Competitive fluorescence polarization assay, Gal-3C
Assay type: binding
Test Conditions: CSV supplement, unrounded mean; read-out: Gal3C_IC50_mean_uM
Bear in mind: pIC50 is minus log10 of a mol/L concentration; give just that figure.

The cases that follow already have their pIC50 on record.
>  <Smiles Record>
CC(=O)N(c1cccc(C(F)(F)F)c1)[C@@H]1O[C@H](CO)[C@@H](O[C@@H]2O[C@H](CO)[C@H](O)[C@H](O)[C@H]2O)[C@H](O)[C@H]1O

>  <Measured On>
human galectin-3C (Gal-3C, C-terminal CRD of galectin-3) (Homo sapiens, UniProt P17931)

>  <pIC50>
3.31

$$$$
>  <Smiles Record>
CC(=O)N(c1ccc(F)cc1)[C@@H]1O[C@H](CO)[C@@H](O[C@@H]2O[C@H](CO)[C@H](O)[C@H](O)[C@H]2O)[C@H](O)[C@H]1O

>  <Measured On>
human galectin-3C (Gal-3C, C-terminal CRD of galectin-3) (Homo sapiens, UniProt P17931)

>  <pIC50>
3.56

$$$$
>  <Smiles Record>
CC(=O)N(c1ccc(F)c(F)c1)[C@@H]1O[C@H](CO)[C@@H](O[C@@H]2O[C@H](CO)[C@H](O)[C@H](O)[C@H]2O)[C@H](O)[C@H]1O

>  <Measured On>
human galectin-3C (Gal-3C, C-terminal CRD of galectin-3) (Homo sapiens, UniProt P17931)

>  <pIC50>
3.55

$$$$
>  <Smiles Record>
CC(=O)N(c1cc(Br)cc(C(=O)O)c1)[C@@H]1O[C@H](CO)[C@@H](O[C@@H]2O[C@H](CO)[C@H](O)[C@H](O)[C@H]2O)[C@H](O)[C@H]1O

>  <Measured On>
human galectin-3C (Gal-3C, C-terminal CRD of galectin-3) (Homo sapiens, UniProt P17931)

>  <pIC50>
3.80

$$$$
>  <Smiles Record>
COC(=O)c1cc(N(C(C)=O)[C@@H]2O[C@H](CO)[C@@H](O[C@@H]3O[C@H](CO)[C@H](O)[C@H](O)[C@H]3O)[C@H](O)[C@H]2O)c2cc[nH]c2c1

>  <Measured On>
human galectin-3C (Gal-3C, C-terminal CRD of galectin-3) (Homo sapiens, UniProt P17931)

>  <pIC50>
4.37

$$$$
>  <Smiles Record>
O=C(O)c1cccc(N(C(=O)Cc2ccccc2)[C@@H]2O[C@H](CO)[C@@H](O[C@@H]3O[C@H](CO)[C@H](O)[C@H](O)[C@H]3O)[C@H](O)[C@H]2O)c1

>  <Measured On>
human galectin-3C (Gal-3C, C-terminal CRD of galectin-3) (Homo sapiens, UniProt P17931)

>  <pIC50>
3.88

$$$$
>  <Smiles Record>
CC(=O)N(c1cc(C(=O)O)cc2[nH]ccc12)[C@@H]1O[C@H](CO)[C@@H](S[C@@H]2O[C@H](CO)[C@H](O)[C@H](n3cc(-c4cccc(F)c4)nn3)[C@H]2O)[C@H](O)[C@H]1O

>  <Measured On>
human galectin-3C (Gal-3C, C-terminal CRD of galectin-3) (Homo sapiens, UniProt P17931)

>  <pIC50>
7.24

$$$$
>  <Smiles Record>
CCOC(=O)c1ccccc1N(C(C)=O)[C@@H]1O[C@H](CO)[C@@H](O[C@@H]2O[C@H](CO)[C@H](O)[C@H](O)[C@H]2O)[C@H](O)[C@H]1O

>  <Measured On>
human galectin-3C (Gal-3C, C-terminal CRD of galectin-3) (Homo sapiens, UniProt P17931)

>  <pIC50>
3.62

$$$$
>  <Smiles Record>
CC(=O)N(c1cccc(CO)c1)[C@@H]1O[C@H](CO)[C@@H](O[C@@H]2O[C@H](CO)[C@H](O)[C@H](O)[C@H]2O)[C@H](O)[C@H]1O

>  <Measured On>
human galectin-3C (Gal-3C, C-terminal CRD of galectin-3) (Homo sapiens, UniProt P17931)

>  <pIC50>
3.56

$$$$
>  <Smiles Record>
CC(=O)N(c1ccccc1)[C@@H]1O[C@H](CO)[C@@H](O[C@@H]2O[C@H](CO)[C@H](O)[C@H](O)[C@H]2O)[C@H](O)[C@H]1O

>  <Measured On>
human galectin-3C (Gal-3C, C-terminal CRD of galectin-3) (Homo sapiens, UniProt P17931)

>  <pIC50>
3.54

$$$$

Inquiry: Please indicate recorded pIC50 of COc1ccc(N(C(C)=O)[C@@H]2O[C@H](CO)[C@@H](O[C@@H]3O[C@H](CO)[C@H](O)[C@H](O)[C@H]3O)[C@H](O)[C@H]2O)cc1 measured with human galectin-3C (Gal-3C, C-terminal CRD of galectin-3) (Homo sapiens, UniProt P17931).
Reply text: 3.46

Inquiry: Please indicate recorded pIC50 of CC(=O)N(c1cc(C(=O)O)cc2[nH]ccc12)[C@@H]1O[C@H](CO)[C@@H](O[C@@H]2O[C@H](CO)[C@H](O)[C@H](O)[C@H]2O)[C@H](O)[C@H]1O measured with human galectin-3C (Gal-3C, C-terminal CRD of galectin-3) (Homo sapiens, UniProt P17931).
Reply text: 4.94

Inquiry: Please indicate recorded pIC50 of CC(=O)N(c1cccc(F)c1)[C@@H]1O[C@H](CO)[C@@H](O[C@@H]2O[C@H](CO)[C@H](O)[C@H](O)[C@H]2O)[C@H](O)[C@H]1O measured with human galectin-3C (Gal-3C, C-terminal CRD of galectin-3) (Homo sapiens, UniProt P17931).
Reply text: 3.52

Inquiry: Please indicate recorded pIC50 of CC(=O)N(c1cc(F)c(F)c(F)c1)[C@@H]1O[C@H](CO)[C@@H](O[C@@H]2O[C@H](CO)[C@H](O)[C@H](O)[C@H]2O)[C@H](O)[C@H]1O measured with human galectin-3C (Gal-3C, C-terminal CRD of galectin-3) (Homo sapiens, UniProt P17931).
Reply text: 3.48

Inquiry: Please indicate recorded pIC50 of CC(=O)N(c1cccc(-c2ccc(C)o2)c1)[C@@H]1O[C@H](CO)[C@@H](O[C@@H]2O[C@H](CO)[C@H](O)[C@H](O)[C@H]2O)[C@H](O)[C@H]1O measured with human galectin-3C (Gal-3C, C-terminal CRD of galectin-3) (Homo sapiens, UniProt P17931).
Reply text: 3.49

Inquiry: Please indicate recorded pIC50 of CC(=O)N(c1ccc(Cl)c(Cl)c1)[C@@H]1O[C@H](CO)[C@@H](O[C@@H]2O[C@H](CO)[C@H](O)[C@H](O)[C@H]2O)[C@H](O)[C@H]1O measured with human galectin-3C (Gal-3C, C-terminal CRD of galectin-3) (Homo sapiens, UniProt P17931).
Reply text: 3.46

Inquiry: Please indicate recorded pIC50 of CC(=O)N(c1ccc(Cl)cc1)[C@@H]1O[C@H](CO)[C@@H](O[C@@H]2O[C@H](CO)[C@H](O)[C@H](O)[C@H]2O)[C@H](O)[C@H]1O measured with human galectin-3C (Gal-3C, C-terminal CRD of galectin-3) (Homo sapiens, UniProt P17931).
Reply text: 3.44

Inquiry: Please indicate recorded pIC50 of CC(=O)N(c1ccc2c(c1)OCO2)[C@@H]1O[C@H](CO)[C@@H](O[C@@H]2O[C@H](CO)[C@H](O)[C@H](O)[C@H]2O)[C@H](O)[C@H]1O measured with human galectin-3C (Gal-3C, C-terminal CRD of galectin-3) (Homo sapiens, UniProt P17931).
Reply text: 3.46

Inquiry: Please indicate recorded pIC50 of CC(=O)N(c1ccc(C)cc1)[C@@H]1O[C@H](CO)[C@@H](O[C@@H]2O[C@H](CO)[C@H](O)[C@H](O)[C@H]2O)[C@H](O)[C@H]1O measured with human galectin-3C (Gal-3C, C-terminal CRD of galectin-3) (Homo sapiens, UniProt P17931).
Reply text: 3.39

Inquiry: Please indicate recorded pIC50 of CC(=O)N(c1ccc(I)cc1)[C@@H]1O[C@H](CO)[C@@H](O[C@@H]2O[C@H](CO)[C@H](O)[C@H](O)[C@H]2O)[C@H](O)[C@H]1O measured with human galectin-3C (Gal-3C, C-terminal CRD of galectin-3) (Homo sapiens, UniProt P17931).
Reply text: 3.45

Inquiry: Please indicate recorded pIC50 of CC(=O)N(c1cccc(C(=O)O)c1)[C@@H]1O[C@H](CO)[C@@H](O[C@@H]2O[C@H](CO)[C@H](O)[C@H](O)[C@H]2O)[C@H](O)[C@H]1O measured with human galectin-3C (Gal-3C, C-terminal CRD of galectin-3) (Homo sapiens, UniProt P17931).
Reply text: 3.90

Data provenance: paper PMC12670426
